Just for reference, the Immune Epitope Database (IEDB) is where these values come from.

Target: HLA-A*32:15
Assay: IEDB peptide-MHC binding, purified MHC/competitive/fluorescence; filed as Kd, often an IC50 or EC50 that approximates it; bounds were set here for any values at or beyond the usual limits of such assays
Details: source organism: Clostridium novyi NT
property.name: Kd (nM)
Provide the reading as a plain figure in nM.

# input Give Kd for the following sequence: ASMDNTSPM
# output 223

---

Biological target: HLA-B*44:03
Experiment: IEDB peptide-MHC binding, purified MHC/competitive/radioactivity; filed as Kd, often an IC50 or EC50 that approximates it; bounds were set here for any values at or beyond the usual limits of such assays
Details: source organism: SARS coronavirus Tor2
Labelling field: enter true if recorded Kd is less than 100 nM. Enter false if it equals or exceeds that cut-off.

Use the examples below as a reference point.
TERLKLFAA: false
KELSPRWYFY: true
FELTSMKYF: false
SEMVMCGGSL: true
VEYPIIGDEL: false

# input Dear colleague, could you confirm whether Kd of VELVAEMDG falls below 100 nM? Thanks.
# output false

# input Dear colleague, could you confirm whether Kd of WEIQQVVDA falls below 100 nM? Thanks.
# output false
